System: KM12 colon
Assay: NCI-60 one-dose screen, 48 h
Details: 10 µM
The panel holds about 83,000 compounds, 20% with a hit somewhere; the sample as a whole holds those more often. The source made the active and inactive calls. How the source made its calls: active means growth percent below 10; inactive means the rest.
Outcome codes: active, inactive

Compound	Answer label
COc1cc([N+](=O)[O-])c2ncccc2c1[N+](=O)[O-]	inactive
C#CC1(O)CCC(C(C)(C)C)CC1 (stereo unspecified)	inactive
C/C1=C\[C@H](C)C[C@H](C)OC(=O)C[C@H](c2ccc(O)cc2)NC(=O)[C@@H](Cc2c(Br)[nH]c3ccccc23)N(C)C(=O)[C@H](C)NC(=O)[C@@H](C)C1	active
CS(=N)(=O)CCC(N)C(=O)O (stereo unspecified)	inactive
CN(C)CC1(N)C(=O)NC(=O)NC1=O	inactive
C[C@@H]1C[C@@H]([C@H](O)CC2CC(=O)NC(=O)C2)C(=O)[C@@H](C)C1	active
O=[N+]([O-])c1ccc(N2CCOCC2)c2c1no[n+]2[O-]	active
CC1CCC2(OC1)OC1C(O)C3C4CCC5CC(OC6OC(CO)C(OC7OC(CO)C(O)C(OC8OCC(O)C(O)C8O)C7OC7OC(CO)C(O)C(OC8OC(CO)C(O)C(O)C8O)C7O)C(O)C6O)C(O)CC5(C)C4CCC3(C)C1C2C (stereo unspecified)	inactive
Cc1ccc(NC(=O)CBr)cc1	inactive
O=C1CCC(=O)N1SC(Cl)(Cl)Cl	inactive
CC/C(=C/c1ccc(OC)cc1)[N+](=O)[O-]	inactive
CC12OOC(c3ccccc31)c1c2ccc2ccccc12 (stereo unspecified)	active
Oc1c(Cl)cc(Cl)c2ccccc12.[Cu+2]	inactive
COC12c3c(C)cc(O)c4c(=O)occ(c34)C(=O)C1C13COC(=O)c4c(O)cc(C)c(c41)C(=O)C2C3OC(C)=O (stereo unspecified)	inactive
O=[N+]([O-])c1ccc(N(CCO)CCO)c2c1no[n+]2[O-]	active
Cc1cc(C(C)(C)c2ccc(O)c(C)c2)ccc1O	inactive
COc1ccccc1[As]=[As]c1ccccc1OC (stereo unspecified)	active
CC(C)c1cc([N+](=O)[O-])cc([N+](=O)[O-])c1O	inactive
COC(C(=O)C(O)C(C)O)C1Cc2cc3cc(OC4CC(OC(C)=O)C(OC5CC(O)C(OC)C(C)O5)C(C)O4)cc(O)c3c(O)c2C(=O)C1OC1CC(OC2CC(OC3CC(C)(O)C(OC(=O)C(C)C)C(C)O3)C(O)C(C)O2)C(O)C(C)O1 (stereo unspecified)	active
Oc1c(I)cc(I)cc1I	inactive
[O-][n+]1ccccc1S	inactive

----------
Test system: MALME-3M melanoma
Experiment: NCI-60 one-dose screen, 48 h
Conditions: 10 µM
The panel holds about 83,000 compounds, 20% with a hit somewhere; the sample as a whole holds those more often. The source made the active and inactive calls. How the source made its calls: active means growth percent below 10; inactive means the rest.
Outcome codes: YES = active, NO = inactive

Compound	Answer label
COC12C(COC(N)=O)C3=C(C(=O)C(C)=C(N)C3=O)N1CC1C2N1C (stereo not given)	NO
COc1cc(/C=C/[N+](=O)[O-])cc(OC)c1OC	YES
CCOP(=O)(OCC)/C(C#N)=C/c1ccc(Br)cc1	NO
COc1ccccc1/C=C/[N+](=O)[O-]	NO
N#CCc1ccccc1	NO
COC(C(=O)C(O)C(C)O)C1Cc2cc3cc(OC4CC(OC(C)=O)C(OC5CC(O)C(OC)C(C)O5)C(C)O4)cc(O)c3c(O)c2C(=O)C1OC1CC(OC2CC(OC3CC(C)(O)C(OC(=O)C(C)C)C(C)O3)C(O)C(C)O2)C(O)C(C)O1 (stereo not given)	YES
O=[N+]([O-])c1ccc(Br)c([N+](=O)[O-])c1	NO
CCCCCCCC[N+]12CN3CN(CN(C3)C1)C2	NO
COc1cc([N+](=O)[O-])c2ncccc2c1[N+](=O)[O-]	NO
CCOP(=O)(OCC)C(O)c1ccccc1Cl (stereo not given)	NO
